Origin of the recorded values: patent US20210395394A1

Molecular target: Pan-species-specific antigen Plasmodium Lactate DeHydrogenase (Pan-PLDH) protein
Experiment: indirect ELISA at four coating concentrations, KD calculated from half-maximal OD
MEASURE NAME: Kd (nM)

{"BINDER": "WT 1-7 (antibody, mouse IgG2b, kappa, V domains shown) VH: QVQLQQPGAELVRPGASVKLSCKASGSSFTNYFMNWVKQRPGQGLEWIGMINPSDSETRVNQKFKDKATLTVDKSSSTAYMQLSSLTAEDSAVYYCARSGEFYTSYWDYWGQGTTLTVSS VL: DIQLTQSPASLSASVGETVTITCRGTGNVHNYIAWYQQKQGKSPQLLVYNAKTLADGVPSRFSGSGSGTQYSLKINSLQPEDFGSYYCQYFWSSYTFGGGTKLEIKR", "UNITS OF MEASURE": "nM", "READING": 0.757}
{"BINDER": "Mutation 1-33 (antibody, mouse IgG2b, kappa, V domains shown) VH: QVQLQQPGAELVRPGASVKLSCKASGTSFTNYWMNWVKQRPGQGLEWIGMIHPSESETRINQKFKDKATLTVDKSSSTAYMQLSSLTAEDSAVYYCARSGEFYTSYFDYWGQGTTLTVSS VL: DIQLTQSPASLSASVGETVTITCRGSGNVHNYLAWYQQKQGKSPQLLVYNARTLADGVPSRFSGSGSGTQYSLKINSLQPEDFGSYYCQTFWSTYTFGGGTKLEIKR", "UNITS OF MEASURE": "nM", "READING": 0.372}
{"BINDER": "WT 1-9 (antibody, mouse IgG2b, kappa, V domains shown) VH: QVQLQQPGAELVRPGASVKLSCKASGSSFTNYFMNWVKQRPGQGLEWIGMINPSESETRINQKFKDKATLTVDKSSSTAYMQLSSLTAEDSAVYYCAKSGEFYTYYWDYWGQGTTLTVSS VL: DIQLTQSPASLSASVGETVTITCRGTGNVHNYIAWYQQKQGKSPQLLVYNARTLADGVPSRFSGSGSGTQYSLKINSLQPEDFGSYYCQTFWSSYTFGGGTKLEIKR", "UNITS OF MEASURE": "nM", "READING": 0.621}
